system: Aβ42 (Homo sapiens)
methodSummary: Th-T (thioflavin-T) assay of Aβ42 aggregation
Format: biochemical
conditionContext: compound at 10; reading M58 of time course
measuredQuantity: Th-T fluorescence, mean of three wells

Lab note: measured Th-T fluorescence, mean of three wells of C=C1CCC2C(C)(CCC=C(C)C)C(O)CCC2(C)C1Cc1c(OC)oc(CO)c(C(=O)OC)c1=O (centres unmarked) [Compound 13] was 1.551

Lab note: measured Th-T fluorescence, mean of three wells of C=C1CC[C@@H]2[C@](C)(CC[C@H]3O[C@H](C=C(C)C)C[C@@]23C)[C@@H]1Cc1c(OC)oc(CO)c(C(=O)OC)c1=O [Compound 21] was 0.3339

Lab note: measured Th-T fluorescence, mean of three wells of C=C1CC[C@@H]2[C@](C)(CC[C@H]3O[C@H](C=C(C)C)C[C@@]23C)[C@@H]1Cc1c(OC)oc(CO)c(C)c1=O [Compound 20] was 3.464

Lab note: measured Th-T fluorescence, mean of three wells of C=C1CCC2C(C)(CCC=C(C)C)C(O)CCC2(C)C1Cc1c(OC)oc(C)c(C(=O)OC)c1=O (centres unmarked) [Compound 14] was 2.605

Lab note: measured Th-T fluorescence, mean of three wells of C=C1CCC2C(C)(CCC=C(C)C)C(O)CCC2(C)C1Cc1c(OC)oc(CO)c(C)c1=O (centres unmarked) [Compound 12] was 3.457

---

system: Aβ42 (Homo sapiens, UniProt P05067)
Sequence (P05067 672-713): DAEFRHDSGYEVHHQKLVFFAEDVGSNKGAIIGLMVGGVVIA
methodSummary: Th-T (thioflavin-T) assay of Aβ42 aggregation
Type: biochemical
conditionContext: column suffix _20; measurement M27
Threshold check on Th-T fluorescence, mean of three wells (Fig. 7a): at or above 2 gives y, strictly below gives n.

Is Th-T fluorescence, mean of three wells (Fig. 7a) at least 2? Consider C=C1CCC2C(C)(CCC=C(C)C)C(O)CCC2(C)C1Cc1c(OC)oc(C)c(C(=O)OC)c1=O (centres unmarked)
n

Is Th-T fluorescence, mean of three wells (Fig. 7a) at least 2? Consider `C=C1CC[C@@H]2[C@](C)(CC[C@H]3O[C@H](C=C(C)C)C[C@@]23C)[C@@H]1Cc1c(OC)oc(CO)c(C)c1=O`
y

Is Th-T fluorescence, mean of three wells (Fig. 7a) at least 2? Consider C=C1CCC2C(C)(CCC=C(C)C)C(O)CCC2(C)C1Cc1c(OC)oc(CO)c(C)c1=O (centres unmarked)
y

Is Th-T fluorescence, mean of three wells (Fig. 7a) at least 2? Consider `C=C1CC[C@@H]2[C@](C)(CC[C@H]3O[C@H](C=C(C)C)C[C@@]23C)[C@@H]1Cc1c(OC)oc(CO)c(C(=O)OC)c1=O`
n

Is Th-T fluorescence, mean of three wells (Fig. 7a) at least 2? Consider C=C1CCC2C(C)(CCC=C(C)C)C(O)CCC2(C)C1Cc1c(OC)oc(CO)c(C(=O)OC)c1=O (centres unmarked)
n

---

System: l(2)mbn cells
methodSummary: cytotoxicity in Drosophila l(2)mbn cells
Format: cell-based
conditionContext: Drosophila melanogaster, cytotoxicity, average of two replicates, read-out: IC50 Average
measuredQuantity: pIC50
Just the number, please; pIC50 means minus log10 of the concentration in mol/L.

Lab note: measured pIC50 of C=C1CC[C@H]2[C@]3(C)C[C@@H](C=C(C)C)O[C@H]3CC[C@]2(C)[C@@H]1Cc1c(OC)oc(CO)c(C)c1=O [Compound 17] was 5.75

Lab note: measured pIC50 of C=C1CCC2C(C)(CCC=C(C)C)C(O)CCC2(C)C1Cc1c(OC)oc(CO)c(C)c1=O (centres unmarked) [Compound 12] was 5.48
